List of IC50 values.
Target: p110δ/p85α (Homo sapiens, UniProt O00329)
Sequence (O00329 whole entry): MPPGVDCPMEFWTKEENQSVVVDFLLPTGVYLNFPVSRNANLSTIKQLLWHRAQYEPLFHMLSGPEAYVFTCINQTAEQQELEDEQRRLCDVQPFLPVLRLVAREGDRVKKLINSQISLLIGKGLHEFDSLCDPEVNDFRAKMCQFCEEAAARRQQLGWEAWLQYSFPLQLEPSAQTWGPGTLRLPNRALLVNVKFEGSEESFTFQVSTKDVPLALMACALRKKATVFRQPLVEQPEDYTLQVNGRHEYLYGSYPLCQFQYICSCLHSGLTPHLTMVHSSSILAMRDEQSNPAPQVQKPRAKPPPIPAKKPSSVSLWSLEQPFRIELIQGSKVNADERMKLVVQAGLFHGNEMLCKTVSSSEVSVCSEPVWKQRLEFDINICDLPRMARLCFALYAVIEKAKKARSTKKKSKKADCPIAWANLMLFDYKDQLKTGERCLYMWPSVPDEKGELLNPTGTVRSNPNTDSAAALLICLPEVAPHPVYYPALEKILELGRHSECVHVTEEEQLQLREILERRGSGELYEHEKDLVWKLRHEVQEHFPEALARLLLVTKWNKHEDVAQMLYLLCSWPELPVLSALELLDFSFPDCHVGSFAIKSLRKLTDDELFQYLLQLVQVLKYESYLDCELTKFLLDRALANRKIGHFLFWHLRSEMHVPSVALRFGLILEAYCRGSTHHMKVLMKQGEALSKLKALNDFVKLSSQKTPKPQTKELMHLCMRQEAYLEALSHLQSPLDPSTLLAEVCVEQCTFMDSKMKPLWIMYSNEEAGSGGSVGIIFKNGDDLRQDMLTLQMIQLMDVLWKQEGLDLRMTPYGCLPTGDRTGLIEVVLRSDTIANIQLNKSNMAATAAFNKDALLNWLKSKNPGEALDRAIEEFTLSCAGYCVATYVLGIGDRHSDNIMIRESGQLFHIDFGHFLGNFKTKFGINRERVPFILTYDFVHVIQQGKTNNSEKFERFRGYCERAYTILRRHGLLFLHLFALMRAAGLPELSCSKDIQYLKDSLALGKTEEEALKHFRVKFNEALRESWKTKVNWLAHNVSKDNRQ
Sequence (P27986 whole entry partner): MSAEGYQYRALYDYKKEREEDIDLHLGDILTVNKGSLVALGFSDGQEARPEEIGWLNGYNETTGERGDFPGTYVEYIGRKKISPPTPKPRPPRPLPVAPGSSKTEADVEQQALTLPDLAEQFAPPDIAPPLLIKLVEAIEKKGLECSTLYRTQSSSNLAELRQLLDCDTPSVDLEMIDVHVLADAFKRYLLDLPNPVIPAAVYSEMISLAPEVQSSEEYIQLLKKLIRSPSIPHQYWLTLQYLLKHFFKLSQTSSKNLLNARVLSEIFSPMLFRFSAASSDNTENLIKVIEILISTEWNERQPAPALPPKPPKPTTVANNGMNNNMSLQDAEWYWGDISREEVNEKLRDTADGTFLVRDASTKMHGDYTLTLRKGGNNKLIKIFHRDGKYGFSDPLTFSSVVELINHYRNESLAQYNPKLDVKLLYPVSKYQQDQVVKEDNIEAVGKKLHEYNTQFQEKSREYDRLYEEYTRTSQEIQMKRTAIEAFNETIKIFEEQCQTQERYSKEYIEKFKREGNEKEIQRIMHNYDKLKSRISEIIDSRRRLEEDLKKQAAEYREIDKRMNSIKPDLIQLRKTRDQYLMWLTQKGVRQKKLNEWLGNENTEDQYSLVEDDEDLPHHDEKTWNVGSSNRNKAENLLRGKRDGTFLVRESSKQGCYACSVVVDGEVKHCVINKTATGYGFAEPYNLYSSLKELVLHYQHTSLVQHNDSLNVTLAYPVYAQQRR
Test: Transcreener KINASE Assay, kinase inhibition of p110δ/p85α
Conditions: read-out: PI3Kδ IC50
Express your answer in nM, writing the number without its unit.

// known answers, use as guide
Task: Please report the recorded IC50 for N#Cc1c[nH]c2ncnc(N3C[C@@H](F)C[C@H]3c3nn4ccc(Cl)c4c(=O)n3-c3ccccc3)c12 .
Output: 1

Task: Please report the recorded IC50 for Nc1ncc([N+](=O)[O-])c(N2CCC[C@H]2c2nn3ccc(Cl)c3c(=O)n2-c2ccccc2)n1 .
Output: 34

Task: Please report the recorded IC50 for CC(Nc1ncnc2[nH]cc(C#N)c12)c1cc2ncc(Cl)n2c(=O)n1-c1ccccc1 (stereo not shown) .
Output: 5

Moving on to the next compound.
Task: Please report the recorded IC50 for COc1ccc(-c2n[nH]c3ncnc(N4CCC[C@H]4c4nn5ccc(Cl)c5c(=O)n4-c4ccccc4)c23)cn1 .
Output: 4

---

Target: p110γ (Homo sapiens, UniProt P48736)
Sequence (P48736 whole entry): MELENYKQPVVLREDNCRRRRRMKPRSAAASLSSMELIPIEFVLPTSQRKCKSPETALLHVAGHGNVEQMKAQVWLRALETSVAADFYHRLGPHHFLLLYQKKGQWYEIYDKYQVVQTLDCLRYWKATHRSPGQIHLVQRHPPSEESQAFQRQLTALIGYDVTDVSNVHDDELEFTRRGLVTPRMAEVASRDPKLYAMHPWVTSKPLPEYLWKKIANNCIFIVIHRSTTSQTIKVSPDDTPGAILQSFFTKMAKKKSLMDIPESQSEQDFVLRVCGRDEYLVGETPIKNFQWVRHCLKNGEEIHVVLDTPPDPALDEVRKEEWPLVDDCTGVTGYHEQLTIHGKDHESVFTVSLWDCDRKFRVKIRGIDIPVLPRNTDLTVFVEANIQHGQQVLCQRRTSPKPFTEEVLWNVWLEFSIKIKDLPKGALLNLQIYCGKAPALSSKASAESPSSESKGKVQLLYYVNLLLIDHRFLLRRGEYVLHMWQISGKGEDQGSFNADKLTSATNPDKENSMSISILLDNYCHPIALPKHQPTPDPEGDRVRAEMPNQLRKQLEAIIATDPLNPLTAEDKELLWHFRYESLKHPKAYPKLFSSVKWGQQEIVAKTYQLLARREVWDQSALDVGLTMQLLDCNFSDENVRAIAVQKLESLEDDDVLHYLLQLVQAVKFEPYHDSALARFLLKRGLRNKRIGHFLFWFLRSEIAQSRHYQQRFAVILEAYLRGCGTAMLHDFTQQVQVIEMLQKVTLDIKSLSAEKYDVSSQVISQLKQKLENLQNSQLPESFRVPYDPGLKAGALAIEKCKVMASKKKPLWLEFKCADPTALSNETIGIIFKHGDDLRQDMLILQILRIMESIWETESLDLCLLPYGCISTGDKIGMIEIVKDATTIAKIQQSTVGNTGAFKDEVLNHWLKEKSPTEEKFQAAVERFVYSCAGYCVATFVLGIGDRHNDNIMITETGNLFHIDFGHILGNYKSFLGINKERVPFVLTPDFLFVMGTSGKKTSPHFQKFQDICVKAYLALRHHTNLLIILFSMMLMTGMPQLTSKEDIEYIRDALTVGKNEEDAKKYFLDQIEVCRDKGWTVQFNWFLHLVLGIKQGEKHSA
Experiment: Transcreener KINASE Assay, kinase inhibition of p110γ
Type: biochemical
Conditions: 1 uM test compound
Record class 1 whenever PI3Kγ IH % @ 1 uM is at 90% or higher; record class 0 when lower.

Consider the worked cases shown below.
Task: Check if PI3Kγ IH % @ 1 uM >= 90% (inclusive). Item: O=c1c2c(Cl)ccn2nc([C@@H]2C[C@H](OCCO)CN2c2ncnc3[nH]cnc23)n1-c1ccccc1
Output: class 1

Task: Check if PI3Kγ IH % @ 1 uM >= 90% (inclusive). Item: CC(Nc1ncnc2[nH]cc(C#N)c12)c1cn2ccc(Cl)c2c(=O)n1-c1cccc(F)c1 (stereo not shown) [Compound 76]
Output: class 1

Task: Check if PI3Kγ IH % @ 1 uM >= 90% (inclusive). Item: Cc1ccn2cc(C(C)Nc3ncnc4[nH]cnc34)n(-c3ccccc3)c(=O)c12 (stereo not shown)
Output: class 1

Task: Check if PI3Kγ IH % @ 1 uM >= 90% (inclusive). Item: CC(=O)c1cnc(N)nc1N1CC(=O)C[C@H]1c1nn2ccc(F)c2c(=O)n1-c1ccccc1
Output: class 0

Task: Check if PI3Kγ IH % @ 1 uM >= 90% (inclusive). Item: N#Cc1c[nH]c2ncnc(N3C[C@@H](F)C[C@H]3c3nn4ccc(Cl)c4c(=O)n3-c3ccccc3)c12
Output: class 1

Shifting focus to the compound that follows.
Task: Check if PI3Kγ IH % @ 1 uM >= 90% (inclusive). Item: CC(Nc1nc(N)ncc1C(F)(F)F)c1cn2ccc(Cl)c2c(=O)n1-c1cccc(F)c1 (stereo not shown)
Output: class 0

---

Target: p110δ/p85α (Homo sapiens, UniProt O00329)
Experiment: Transcreener KINASE Assay, kinase inhibition of p110δ/p85α
Type: biochemical
Details: 1 uM test compound
List of PI3Kδ IH % @ 1 uM values.
Express your answer in %, writing the number without its unit.

// known answers, use as guide
Task: Reported PI3Kδ IH % @ 1 uM for p110δ/p85α (Homo sapiens, UniProt O00329), given CC(O)c1cnc(N)nc1N1CC[C@H]1c1nn2ccc(Cl)c2c(=O)n1-c1ccccc1 (some centres unmarked) ?
Output: 37.9

Task: Reported PI3Kδ IH % @ 1 uM for p110δ/p85α (Homo sapiens, UniProt O00329), given Nc1nc2cccc(N3CCC[C@H]3c3nn4ccc(Cl)c4c(=O)n3-c3ccccc3)n2n1 ?
Output: 90.1

Task: Reported PI3Kδ IH % @ 1 uM for p110δ/p85α (Homo sapiens, UniProt O00329), given CC(=O)c1cnc(N)nc1N1CC[C@H]1c1nn2ccc(F)c2c(=O)n1-c1ccccc1 ?
Output: 99.4

Task: Reported PI3Kδ IH % @ 1 uM for p110δ/p85α (Homo sapiens, UniProt O00329), given O=c1c2c(Cl)ccn2cc(C2CCCN2c2ncnc3[nH]cnc23)n1-c1ccccc1 (centres unmarked) ?
Output: 97.5

Task: Reported PI3Kδ IH % @ 1 uM for p110δ/p85α (Homo sapiens, UniProt O00329), given CC(Nc1ncnc2[nH]cc(C#N)c12)c1cc2c(Cl)cc(Cl)n2c(=O)n1-c1cccc(F)c1 (centres unmarked) ?
Output: 97.8

Moving on to the next compound.
Task: Reported PI3Kδ IH % @ 1 uM for p110δ/p85α (Homo sapiens, UniProt O00329), given CC(=O)c1c(N)ncnc1N1CC[C@H]1c1nn2ccc(Cl)c2c(=O)n1-c1ccccc1 ?
Output: 99.1
